# TESTED_ON: T1, recombinant human DLL4, C-terminally His-tagged extracellular domain (R&D Systems) (human, UniProt Q9NR61 25-522, biotinylated where used in competition ELISA, AlphaScreen and on SA chips)
# T1 construct: also called rhDLL4; hDLL4; not shown: C-terminal His tag
# METHOD_SUMMARY: hDLL4/hNotch1-Fc AlphaScreen, periplasmic extract
OUTCOME_MEASURE: Alpha Screen hDLL4 % inhibition (%)
Quick reminder: number only, in %, skip the unit.

BINDER	UNIT_TAG	RECORDED_RESULT
DLLBII19F04 (VHH, also called DLLBII19F4; not shown: C-terminal c-myc tag and His6 tag) VHH: EVQLVESGGGLVQAEGSLRLSCAASGSTFSTYAMAWYRQAPGKQRELVAGISFDGSTHYAESVKGRFTISRDDAKNTVSLQMNSLKPEDAAVYYCYSVHPSTGFGSWGQGTQVTVSS	%	95

The binder listed as DLLBII17F10 (VHH, not shown: C-terminal c-myc tag and His6 tag) VHH: EVQLVESGGGLVQAGGSLRLSCASSGRTLLNYAMGWFRQAPGKEREFVSGINWSGGSTYYADSVKGRFTISRDNAENTVYLHMNSLKPEDTAVYYCAAAHDNYWFTDDSLGRGLKYWGQGTQVTVSS shows Alpha Screen hDLL4 % inhibition equal to 88
